Record form. Attribute: pIC50. Fill in for each entry.
In simple prose, pIC50 is minus the logarithm base ten of a concentration in moles per litre.

[in] Which measured pIC50 belongs to `CC(=O)NCC[C@@H](NS(=O)(=O)c1ccc(-c2ccccc2)cc1)C(=O)NO` , tested on 72 kDa type IV collagenase (Homo sapiens, UniProt P08253)?
[out] 9.15

[in] Give the reported pIC50 for `CC#CCOc1ccc(S(=O)(=O)N[C@H](CCNC(=O)OCc2ccccc2)C(=O)NO)cc1` (system: 72 kDa type IV collagenase (Homo sapiens, UniProt P08253)).
Sequence (P08253 whole entry): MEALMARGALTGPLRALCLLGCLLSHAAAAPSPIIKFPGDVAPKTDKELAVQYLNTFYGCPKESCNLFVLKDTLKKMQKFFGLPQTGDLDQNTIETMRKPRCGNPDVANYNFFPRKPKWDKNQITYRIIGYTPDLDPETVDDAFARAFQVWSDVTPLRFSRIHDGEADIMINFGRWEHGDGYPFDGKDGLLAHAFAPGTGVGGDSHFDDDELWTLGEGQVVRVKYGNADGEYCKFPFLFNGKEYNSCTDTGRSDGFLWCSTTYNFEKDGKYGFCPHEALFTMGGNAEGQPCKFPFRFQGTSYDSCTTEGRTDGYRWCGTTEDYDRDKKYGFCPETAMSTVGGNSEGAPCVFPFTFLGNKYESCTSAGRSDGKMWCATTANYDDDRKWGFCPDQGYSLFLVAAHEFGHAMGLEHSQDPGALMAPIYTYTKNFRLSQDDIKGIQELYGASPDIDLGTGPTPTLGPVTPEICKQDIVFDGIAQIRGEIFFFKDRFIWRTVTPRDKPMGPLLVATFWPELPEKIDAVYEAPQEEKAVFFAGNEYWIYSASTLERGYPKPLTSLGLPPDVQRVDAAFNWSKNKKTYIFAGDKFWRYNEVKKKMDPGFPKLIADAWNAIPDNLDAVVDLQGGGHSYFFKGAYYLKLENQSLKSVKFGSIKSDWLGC
[out] 7.77

[in] Which measured pIC50 belongs to `COc1ccc(S(=O)(=O)N(OC(C)C)[C@@H](C(=O)NO)C(C)C)cc1` , tested on 72 kDa type IV collagenase (Homo sapiens, UniProt P08253)?
[out] 6.72

[in] Item: `CC(=O)NCC[C@@H](NS(=O)(=O)c1ccc(Br)cc1)C(=O)NO` Test system: 72 kDa type IV collagenase (Homo sapiens, UniProt P08253) Read-out: pIC50 Value: ?
[out] 6.72

---

What IC50 was measured for each of the following?
SYSTEM UNDER TEST: Disintegrin and metalloproteinase domain-containing protein 17 (Homo sapiens)
ASSAY PROTOCOL: Inhibition of ADAM17 in human GI-CA-N cells assessed as inhibition of constitutive sALCAM release by ELISA
Type: cell-based
API: value field is a number in µM; no unit string.

[in] Dear colleague, I am looking for the recorded IC50 of the following compound: `CC#CCOc1ccc(S(=O)(=O)N[C@H](CCN2C(=O)c3ccccc3C2=O)C(=O)NO)cc1`
[out] 0.097

[in] What value of IC50 has been reported for the following compound? COc1ccc(S(=O)(=O)N(Cc2cccnc2)[C@@H](C(=O)NO)C(C)C)cc1.Cl [CGS-27023A]
[out] 4.4

[in] Fill in: IC50 of `CC#CCOc1ccc(S(=O)(=O)N[C@H](CCNC(=O)OCc2ccccc2)C(=O)NO)cc1` is ___
[out] 0.09

---

SYSTEM UNDER TEST: Disintegrin and metalloproteinase domain-containing protein 17 (Homo sapiens, UniProt P78536)
Sequence (P78536 whole entry, the tested form may be a part): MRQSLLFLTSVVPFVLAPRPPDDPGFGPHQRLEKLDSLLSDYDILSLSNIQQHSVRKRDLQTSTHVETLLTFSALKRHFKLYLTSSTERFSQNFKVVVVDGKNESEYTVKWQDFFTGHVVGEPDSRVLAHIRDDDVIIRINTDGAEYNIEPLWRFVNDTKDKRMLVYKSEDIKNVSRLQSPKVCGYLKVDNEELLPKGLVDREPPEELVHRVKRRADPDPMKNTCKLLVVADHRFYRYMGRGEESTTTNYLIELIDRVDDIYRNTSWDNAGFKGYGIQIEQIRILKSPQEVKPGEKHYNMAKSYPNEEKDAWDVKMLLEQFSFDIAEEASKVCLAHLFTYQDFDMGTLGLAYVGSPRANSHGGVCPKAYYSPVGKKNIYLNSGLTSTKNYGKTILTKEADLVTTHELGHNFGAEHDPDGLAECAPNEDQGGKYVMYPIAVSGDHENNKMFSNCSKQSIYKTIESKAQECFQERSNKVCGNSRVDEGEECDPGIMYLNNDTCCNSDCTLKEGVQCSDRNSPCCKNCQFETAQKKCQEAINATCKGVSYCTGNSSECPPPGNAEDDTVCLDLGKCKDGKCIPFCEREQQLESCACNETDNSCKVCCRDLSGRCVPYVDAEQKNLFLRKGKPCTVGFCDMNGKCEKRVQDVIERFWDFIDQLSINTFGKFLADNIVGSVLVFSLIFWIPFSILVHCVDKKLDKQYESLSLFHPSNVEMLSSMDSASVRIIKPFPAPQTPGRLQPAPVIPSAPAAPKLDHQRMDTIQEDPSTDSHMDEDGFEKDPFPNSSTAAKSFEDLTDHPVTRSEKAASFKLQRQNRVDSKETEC
ASSAY PROTOCOL: Inhibition of human recombinant ADAM17 by fluorometric assay
Entry class follows IC50: range A = under 1000 nM, range B = from 1000 nM up to 4000 nM, range C = 4000 nM and over

[in] Tag the class for `CC(C)ON(CC(=O)NO)S(=O)(=O)c1ccc(-c2ccccc2)cc1`
[out] range C

[in] Lab note: sort COc1ccc(S(=O)(=O)N(Cc2cccnc2)[C@@H](C(=O)NO)C(C)C)cc1.Cl [CGS-27023A] into the matching IC50 band.
[out] range A

[in] Category lookup for the molecule `COc1ccc(S(=O)(=O)N(OC(C)C)[C@@H](C(=O)NO)C(C)C)cc1`
[out] range C

[in] Classify this molecule: `O=C(CNS(=O)(=O)c1ccc(-c2ccccc2)cc1)NO`
[out] range B

[in] For the record `CC(C)CN(CC(=O)NO)S(=O)(=O)c1ccc(-c2ccccc2)cc1` , report the class its IC50 corresponds to.
[out] range C

[in] Would you mind sorting `COc1ccc(S(=O)(=O)N(CC(=O)NO)CC(C)C)cc1` into the appropriate category?
[out] range B

[in] Returns: class label. Input: `O=C(NO)[C@@H](CCN1C(=O)c2ccccc2C1=O)NS(=O)(=O)c1ccc(Br)cc1`
[out] range A

[in] Place this molecule in its band: `CC(=O)NCC[C@@H](NS(=O)(=O)c1ccc(-c2ccccc2)cc1)C(=O)NO`
[out] range A

[in] Hi, small favor: classify `COc1ccc(S(=O)(=O)N(CC(C)C)[C@@H](C(=O)NO)C(C)C)cc1` by its IC50 when you get a moment.
[out] range B

---

SYSTEM UNDER TEST: Disintegrin and metalloproteinase domain-containing protein 10 (Homo sapiens, UniProt O14672)
Sequence (O14672 whole entry, the tested form may be a part): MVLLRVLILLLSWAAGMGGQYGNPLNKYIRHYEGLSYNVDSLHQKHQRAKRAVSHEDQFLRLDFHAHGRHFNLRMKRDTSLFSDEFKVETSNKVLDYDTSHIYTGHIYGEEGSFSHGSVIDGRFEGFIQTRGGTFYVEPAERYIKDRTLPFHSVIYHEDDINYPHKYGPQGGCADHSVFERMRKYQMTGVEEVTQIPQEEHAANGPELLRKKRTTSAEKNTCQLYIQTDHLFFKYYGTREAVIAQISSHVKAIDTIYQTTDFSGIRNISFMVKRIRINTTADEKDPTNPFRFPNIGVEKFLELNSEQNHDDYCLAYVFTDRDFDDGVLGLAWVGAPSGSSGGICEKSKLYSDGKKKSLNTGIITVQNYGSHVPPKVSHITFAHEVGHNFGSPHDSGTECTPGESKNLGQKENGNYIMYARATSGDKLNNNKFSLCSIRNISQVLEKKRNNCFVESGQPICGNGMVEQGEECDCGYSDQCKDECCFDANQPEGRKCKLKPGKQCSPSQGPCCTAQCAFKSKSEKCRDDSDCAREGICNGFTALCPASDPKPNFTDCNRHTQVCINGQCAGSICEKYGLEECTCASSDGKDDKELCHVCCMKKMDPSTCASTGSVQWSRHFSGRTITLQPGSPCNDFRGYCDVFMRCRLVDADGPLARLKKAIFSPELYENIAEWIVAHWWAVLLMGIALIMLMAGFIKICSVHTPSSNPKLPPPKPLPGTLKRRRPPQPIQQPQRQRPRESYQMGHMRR
ASSAY PROTOCOL: Inhibition of human recombinant ADAM10 by fluorometric assay
Mark t only for IC50 values smaller than 900 nM; exact matches and larger values are f.

[in] Please determine if `CC#CCOc1ccc(S(=O)(=O)N[C@H](CCN2C(=O)c3ccccc3C2=O)C(=O)NO)cc1` is below 900 nM in terms of IC50.
[out] t

[in] Identify whether the compound `CC(=O)NCC[C@@H](NS(=O)(=O)c1ccc(Br)cc1)C(=O)NO` records IC50 below 900 nM.
[out] f

[in] # TODO verify IC50 < 900 nM strictly for this compound: `CC#CCOc1ccc(S(=O)(=O)N(CC(C)C)[C@H](CCN2C(=O)c3ccccc3C2=O)C(=O)NO)cc1`
[out] f

[in] Threshold test, IC50 < 900 nM: `CC#CCOc1ccc(S(=O)(=O)N[C@H](CCNC(=O)OCc2ccccc2)C(=O)NO)cc1`
[out] t

---

SYSTEM UNDER TEST: Disintegrin and metalloproteinase domain-containing protein 17 (Homo sapiens, UniProt P78536)
ASSAY PROTOCOL: Inhibition of ADAM17 in human SKOV3 cells assessed as inhibition of EGF-induced sALCAM release by ELISA
Type: cell-based, SK-OV-3
So I've got a bunch of molecules here, and I need their pIC50 values.
Scale explanation: pIC50 corresponds to minus log10 of a concentration expressed in moles per litre.

[in] Value lookup for pIC50; key = COc1ccc(S(=O)(=O)N(Cc2cccnc2)[C@@H](C(=O)NO)C(C)C)cc1.Cl [CGS-27023A]
[out] 6.96

[in] Tell me the measured pIC50 of `CC#CCOc1ccc(S(=O)(=O)N[C@H](CCN2C(=O)c3ccccc3C2=O)C(=O)NO)cc1` , please.
[out] 8.37

[in] Could you share which pIC50 value was measured for `CC#CCOc1ccc(S(=O)(=O)N[C@H](CCNC(=O)OCc2ccccc2)C(=O)NO)cc1` ?
[out] 8.49

---

SYSTEM UNDER TEST: Disintegrin and metalloproteinase domain-containing protein 17 (Homo sapiens, UniProt P78536)
ASSAY PROTOCOL: Inhibition of ADAM17 in human MDA-MB-468 cells assessed as inhibition of EGF-induced sALCAM release by ELISA
Type: cell-based
Please provide measured IC50 for the entries that follow.
Field: numeric (nM). Do not append units.

[in] Entry `CC#CCOc1ccc(S(=O)(=O)N[C@H](CCNC(=O)OCc2ccccc2)C(=O)NO)cc1` has what IC50?
[out] 110

[in] Returns the measured IC50 for the input compound. Input: `CC#CCOc1ccc(S(=O)(=O)N[C@H](CCN2C(=O)c3ccccc3C2=O)C(=O)NO)cc1`
[out] 280

[in] Which measured IC50 value corresponds to COc1ccc(S(=O)(=O)N(Cc2cccnc2)[C@@H](C(=O)NO)C(C)C)cc1.Cl [CGS-27023A] ?
[out] 750

---

SYSTEM UNDER TEST: Disintegrin and metalloproteinase domain-containing protein 17 (Homo sapiens, UniProt P78536)
ASSAY PROTOCOL: Inhibition of ADAM17 in human SKOV3 cells assessed as inhibition of constitutive sALCAM release by ELISA
Assay type: cell-based, SK-OV-3
MEASURE NAME: IC50 (µM)
API: value field is a number in µM; no unit string.

[in] Fill in: IC50 of `CC#CCOc1ccc(S(=O)(=O)N[C@H](CCN2C(=O)c3ccccc3C2=O)C(=O)NO)cc1` is ___
[out] 2.6

[in] Query (compound): COc1ccc(S(=O)(=O)N(Cc2cccnc2)[C@@H](C(=O)NO)C(C)C)cc1.Cl [CGS-27023A] ; field requested: IC50
[out] 13

---

SYSTEM UNDER TEST: Matrix metalloproteinase-14 (Homo sapiens)
ASSAY PROTOCOL: Inhibition of human recombinant MMP14 by fluorometric assay
Consider the following molecules; for each one, report its pIC50.
Answer as the number alone; pIC50 is minus log10 of concentration in mol/L.

[in] Value lookup for pIC50; key = `CC#CCOc1ccc(S(=O)(=O)N[C@H](CCN2C(=O)c3ccccc3C2=O)C(=O)NO)cc1`
[out] 8.37

[in] Look at this molecule and give its reported pIC50. `COc1ccc(S(=O)(=O)N(CC(=O)NO)CC(C)C)cc1`
[out] 7.89

[in] Recorded pIC50 of `COc1ccc(S(=O)(=O)NCC(=O)NO)cc1` , please.
[out] 6.68

---

SYSTEM UNDER TEST: Disintegrin and metalloproteinase domain-containing protein 17 (Homo sapiens, UniProt P78536)
ASSAY PROTOCOL: Inhibition of ADAM17 in human A2774 cells assessed as inhibition of pervanadate-induced sALCAM release by ELISA
Assay type: cell-based
What pIC50 was measured for each of the following?
FYI, pIC50 means -log10 of a concentration in mol per litre.

[in] Would you kindly share the measured pIC50 for COc1ccc(S(=O)(=O)N(Cc2cccnc2)[C@@H](C(=O)NO)C(C)C)cc1.Cl [CGS-27023A] ?
[out] 6.42

[in] I would be grateful if you could share the reported pIC50 for `CC#CCOc1ccc(S(=O)(=O)N[C@H](CCN2C(=O)c3ccccc3C2=O)C(=O)NO)cc1` .
[out] 7.82

[in] Using the record for `CC#CCOc1ccc(S(=O)(=O)N[C@H](CCNC(=O)OCc2ccccc2)C(=O)NO)cc1` , report its pIC50.
[out] 7.96
